Test system: MCF7
Test: NCI tumour cell line growth inhibition, 48 h
Active and inactive are the calls of the source. No stated cut-off is given here; in the data, active = GI50 up to about 1.1 µM and inactive = higher.
Hi! Could you answer with just one of these? 1 (active), 0 (inactive)

Reference set, count: 5
- molecule: "O=C(NCCCCCCNC(=O)n1cc(F)c(=O)[nH]c1=O)NCCCOCCOCCCNC(=O)C(O)C(O)C(O)C(O)CO (configuration not stated)"
  assigned label: 0
- molecule: "O=C1C=C(OCCCCl)C(=O)c2c(O)ccc(O)c21"
  assigned label: 1
- molecule: "O=C1NC(=S)NC(=O)C1C(c1ccc(Cl)cc1)C1C(=O)NC(=S)NC1=O.c1ccncc1"
  assigned label: 0
- molecule: "O=C(Nc1ccc(Cl)c(Cl)c1)OCCN1c2ccccc2Sc2ccccc21"
  assigned label: 0
- molecule: "COc1ncc(C=C(C#N)C#N)c(OC)n1"
  assigned label: 0

Test call, this molecule: O=C1N[C@@H]([C@H]2CC[C@H](Cl)CN2)C(=O)N[C@H]1[C@H]1CC[C@H](Cl)CN1
1

// param item: C=CC1(c2ccc(Cl)c(Cl)c2)OCCO1 ; yields the recorded call
0

The values you see were collected from ChEMBL document CHEMBL1201862.
